Reference source for all entries: patent US20190367619A1

Experimental system: T1, human galectin-10-His (recombinant human galectin-10 with TEV-cleavable N-terminal His-tag) (human)
T1 construct: SEC-MALLS: dimer in solution; also called Gal10-His; humanGal10-His
T1 chain: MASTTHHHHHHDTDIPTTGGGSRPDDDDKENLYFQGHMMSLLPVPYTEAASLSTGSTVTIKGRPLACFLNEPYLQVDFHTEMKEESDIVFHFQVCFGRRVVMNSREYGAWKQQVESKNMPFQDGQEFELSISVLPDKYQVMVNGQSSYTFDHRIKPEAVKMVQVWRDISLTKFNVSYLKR
Test description: ELISA, mouse IgG1 on coated galectin-10-His (0.2 ug/mL)
Measured EC50, listed per entry.
Report as: number unit

Binder | EC50
6E10 mouse IgG1 (antibody, V domains shown, also called 6E010; 6E10 mIgG1) VH: QLQLVESGGGLVQPGGSLRLSCAASGFTFSSYWMYWVRQAPGKGLEWVSAINTGGGSTYYADSVKGRFTISRDNAKNTLYLQMNSLKPEDTALYYCARAGSGVAGTGYDYWGQGTQVTVSS VL: QPVLNQPSAVSVSLGQTARITCQGGNFGYYYVSWYQQKPGQAPVLVIYRDSGRPSGIPERFSGSSSGDTATLTISGAQAEDEADYYCQSGSSSDNAVFGGGTHLTVL | 0.17 nM
6A05 mouse IgG1 (antibody, V domains shown, also called 6A05 mIgG1) VH: EVQLVESGGGLVQPGGSLRLSCAASGFTFSSYAMSWVRQAPGKGLEWVSAINSGGGWTSYVDSVKGRFTISRDNAKNTLYLQMDSLKPEDTAVYYCTKYSGPELNTQYGMDYWGKGTLVTVSS VL: NFMLTQPSAVSVSLGQTARITCQGGNFGSYYASWYQQKPGQAPVLVIYRDSGRPSGIPERFSGSSSGDTATLTISGAQAEDEADYYCQSGSSSDNTVFGGGTHLTVL | 0.07 nM
1C09 mouse IgG1 (antibody, V domains shown, VH on mouse IgG1 heavy chain constant domains (CH1-CH2-CH3), VL on mouse lambda light chain constant domain; also called 1C09 mIgG1) VH: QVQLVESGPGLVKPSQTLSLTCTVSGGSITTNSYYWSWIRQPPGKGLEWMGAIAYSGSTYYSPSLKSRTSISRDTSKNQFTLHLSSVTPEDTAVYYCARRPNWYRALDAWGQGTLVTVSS VL: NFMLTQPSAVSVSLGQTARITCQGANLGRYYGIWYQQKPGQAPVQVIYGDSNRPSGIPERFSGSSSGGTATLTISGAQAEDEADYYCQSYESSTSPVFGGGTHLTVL | 0.13 nM

Next, consider the following binder.
Query: Record request: EC50 value, item 4E08 mouse IgG1 (antibody, V domains shown, VH on mouse IgG1 heavy chain constant domains (CH1-CH2-CH3), VL on mouse lambda light chain constant domain; also called 4E8; 4E08 mIgG1) VH: QVQRQESGPGLVKPSQTLSLTCTVSGGSITTSYYAWSWIRQPPGKGLEWMGVIASDGSTYYSPSLKSRTSISRDTSKNQFSLQLSSVTPEDTAVYYCALYIRGSSWSGWSAYDYWGQGTQVTVSS VL: QPVLNQPSAVSVSLGQTARITCQGGNFGYYYGSWYQQKPGQAPVLVIYKDSERPSGIPERFSGSSSGGTATLTISRAQAEDEADYYCQSADSSDNPVFGGGTHLTVL
Result: 3.22 nM
